B1: HDV Ribozyme (parent)
chain: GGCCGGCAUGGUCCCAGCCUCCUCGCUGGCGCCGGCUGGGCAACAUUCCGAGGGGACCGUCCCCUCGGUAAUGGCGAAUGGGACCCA

Variants of: B1
test: self-cleavage, relative activity (ratio to wild type); higher = more cleavage; co-transcriptional
Values of self-cleavage greater than or equal to 0.04 map to Met; values below map to Not met.

>>> category("GGCCGGCAUGGUGCCAGCCUCCUCGCUGGCGCCGGCUGGGCAACAUUCCGAGGGGACCGUCUCCUCGGUAAUGGCGAAUGGGACCCA [C13G C62U]")
"Not met"
>>> category("GGCCGGCAUGGUUCCAGCCUCCUCGCUGGCGCCGGCUGGGCCACAUUCCGAGGGGACCGUCCCCUCGGUAAUGGCGAAUGGGACCCA [C13U A42C]")
"Met"
>>> category("GGCUGGCAUGGUCCCAGCCUCCUCGCUCGCGCCGGCUGGGCAACAUUCCGAGGGGACCGUCCCCUCGGUAAUGGCGAAUGGGACCCA [C4U G28C]")
"Not met"
>>> category("GGCCGGCCUGGUCCCAGCCUCCUCGCUGGCUCCGGCUGGGCAACAUUCCGAGGGGACCGUCCCCUCGGUAAUGGCGAAUGGGACCCA [A8C G31U]")
"Met"
>>> category("GGCCCGCAUUGUCCCAGCCUCCUCGCUGGCGCCGGCUGGGCAACAUUCCGAGGGGACCGUCCCCUCGGUAAUGGCGAAUGGGACCCA [G5C G10U]")
"Met"
